Test system: Klebsiella aerogenes SHV-1 1976E
Test: MIC against standard strains (agar dilution)
Assay type: cell-based
Conditions: Klebsiella aerogenes, 20 h
endpoint: MIC (mg/L)

compound="CO/N=C(\\C(=O)NC1C(=O)N2C(C(=O)O)=C(Sc3cc(N)nc(N)n3)CSC12)c1csc(N)n1 (centres unmarked)" endpoint=MIC readoutunits=mg/L resultvalue=0.25
compound="CCO/N=C(\\C(=O)NC1C(=O)N2C(C(=O)O)=C(Sc3cc(N)nc(N)n3)CSC12)c1csc(N)n1 (centres unmarked)" endpoint=MIC readoutunits=mg/L resultvalue=0.5
compound="Nc1cc(SC2=C(C(=O)O)N3C(=O)C(NC(=O)/C(=N\\O)c4csc(N)n4)C3SC2)nc(N)n1 (centres unmarked)" endpoint=MIC readoutunits=mg/L resultvalue=0.5
compound="CCO/N=C(\\C(=O)NC1C(=O)N2C(C(=O)O)=C(Sc3cc(N)nc(N)n3)CSC12)c1nsc(N)n1 (centres unmarked)" endpoint=MIC readoutunits=mg/L resultvalue=1
compound="C#CCO/N=C(\\C(=O)NC1C(=O)N2C(C(=O)O)=C(Sc3cc(N)nc(N)n3)CSC12)c1csc(N)n1 (centres unmarked)" endpoint=MIC readoutunits=mg/L resultvalue=0.5
